Target: GST-NAP(1-166) (Arabidopsis thaliana, UniProt O49255 1-166)
Sequence: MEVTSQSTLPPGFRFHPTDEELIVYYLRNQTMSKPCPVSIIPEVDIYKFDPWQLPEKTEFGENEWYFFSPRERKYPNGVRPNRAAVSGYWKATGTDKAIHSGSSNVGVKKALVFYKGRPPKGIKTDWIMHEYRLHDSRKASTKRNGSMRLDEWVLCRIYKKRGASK
Assay: universal protein binding microarray (PBM); high values mean tight binding
Details: protein: recombinant; tags: GST; chain copies: 2; dsDNA, one strand shown
quantity: binding signal (E-score)

# query sequence, output unit, numeric result
measured = [
    ("CACACGCA", "E-score", 0.375),
    ("ATACGGAA", "E-score", 0.372),
    ("ACGAGAAA", "E-score", 0.206),
    ("GAGGAAAC", "E-score", 0.0571),
    ("ACACGCTA", "E-score", 0.194),
    ("CGAAGGAA", "E-score", 0.0729),
    ("AGGGTAAG", "E-score", 0.0509),
    ("CACGAAAC", "E-score", 0.208),
    ("ACGCTAAC", "E-score", 0.0585),
    ("ACGCTATC", "E-score", 0.104),
    ("ACACGCGA", "E-score", 0.147),
]

* * *

Target: GST-SND1(1-203) (Arabidopsis thaliana, UniProt Q9LPI7 1-203)
Sequence: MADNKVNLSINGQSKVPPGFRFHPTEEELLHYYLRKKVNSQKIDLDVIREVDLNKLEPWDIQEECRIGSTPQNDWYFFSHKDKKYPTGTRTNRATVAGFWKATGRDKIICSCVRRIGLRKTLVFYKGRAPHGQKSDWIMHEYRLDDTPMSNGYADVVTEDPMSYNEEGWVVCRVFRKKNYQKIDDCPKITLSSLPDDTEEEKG
Assay: universal protein binding microarray (PBM); high values mean tight binding
Conditions: protein: recombinant; tags: GST; chain copies: 2; dsDNA, one strand shown

# query sequence, experimental target, binding signal, E-score
data = [
    ("GTTAAGTA", "GST-SND1(1-203) (Arabidopsis thaliana, UniProt Q9LPI7 1-203)", 0.202),
    ("ATTACGTC", "GST-SND1(1-203) (Arabidopsis thaliana, UniProt Q9LPI7 1-203)", 0.432),
    ("AAGTTACC", "GST-SND1(1-203) (Arabidopsis thaliana, UniProt Q9LPI7 1-203)", 0.37),
    ("GAAACGTA", "GST-SND1(1-203) (Arabidopsis thaliana, UniProt Q9LPI7 1-203)", 0.435),
    ("AACACGCC", "GST-SND1(1-203) (Arabidopsis thaliana, UniProt Q9LPI7 1-203)", 0.144),
    ("CACGAAAG", "GST-SND1(1-203) (Arabidopsis thaliana, UniProt Q9LPI7 1-203)", 0.184),
    ("AAGGGAAA", "GST-SND1(1-203) (Arabidopsis thaliana, UniProt Q9LPI7 1-203)", 0.117),
    ("ATTGAGTA", "GST-SND1(1-203) (Arabidopsis thaliana, UniProt Q9LPI7 1-203)", 0.404),
    ("TCACGTCA", "GST-SND1(1-203) (Arabidopsis thaliana, UniProt Q9LPI7 1-203)", 0.343),
    ("TAAGAAAA", "GST-SND1(1-203) (Arabidopsis thaliana, UniProt Q9LPI7 1-203)", 0.301),
    ("ACGCAATC", "GST-SND1(1-203) (Arabidopsis thaliana, UniProt Q9LPI7 1-203)", 0.474),
    ("GACGCAAA", "GST-SND1(1-203) (Arabidopsis thaliana, UniProt Q9LPI7 1-203)", 0.289),
    ("GCTTTCCC", "GST-SND1(1-203) (Arabidopsis thaliana, UniProt Q9LPI7 1-203)", 0.0912),
    ("TTACGAAA", "GST-SND1(1-203) (Arabidopsis thaliana, UniProt Q9LPI7 1-203)", 0.434),
    ("AAAGTCAT", "GST-SND1(1-203) (Arabidopsis thaliana, UniProt Q9LPI7 1-203)", 0.162),
    ("TGACGTAA", "GST-SND1(1-203) (Arabidopsis thaliana, UniProt Q9LPI7 1-203)", 0.482),
    ("AGACGCAA", "GST-SND1(1-203) (Arabidopsis thaliana, UniProt Q9LPI7 1-203)", 0.265),
    ("ATAAGGAA", "GST-SND1(1-203) (Arabidopsis thaliana, UniProt Q9LPI7 1-203)", 0.201),
    ("TGGAGTAA", "GST-SND1(1-203) (Arabidopsis thaliana, UniProt Q9LPI7 1-203)", 0.454),
    ("ACGTTGAC", "GST-SND1(1-203) (Arabidopsis thaliana, UniProt Q9LPI7 1-203)", 0.127),
    ("ACGCCATG", "GST-SND1(1-203) (Arabidopsis thaliana, UniProt Q9LPI7 1-203)", 0.222),
    ("ATAGCGTA", "GST-SND1(1-203) (Arabidopsis thaliana, UniProt Q9LPI7 1-203)", 0.476),
    ("GAGTTGAC", "GST-SND1(1-203) (Arabidopsis thaliana, UniProt Q9LPI7 1-203)", 0.0621),
    ("ACCTTACC", "GST-SND1(1-203) (Arabidopsis thaliana, UniProt Q9LPI7 1-203)", 0.152),
    ("TGAAGTCA", "GST-SND1(1-203) (Arabidopsis thaliana, UniProt Q9LPI7 1-203)", 0.196),
    ("GCACGGCA", "GST-SND1(1-203) (Arabidopsis thaliana, UniProt Q9LPI7 1-203)", 0.107),
    ("GGAAGCAA", "GST-SND1(1-203) (Arabidopsis thaliana, UniProt Q9LPI7 1-203)", 0.385),
    ("GACGCAAC", "GST-SND1(1-203) (Arabidopsis thaliana, UniProt Q9LPI7 1-203)", 0.325),
    ("CTTGCTTC", "GST-SND1(1-203) (Arabidopsis thaliana, UniProt Q9LPI7 1-203)", 0.403),
    ("ACCTTTCC", "GST-SND1(1-203) (Arabidopsis thaliana, UniProt Q9LPI7 1-203)", 0.143),
    ("GCGTCAAA", "GST-SND1(1-203) (Arabidopsis thaliana, UniProt Q9LPI7 1-203)", 0.0924),
]

* * *

Molecular target: GST-ANAC092(1-285) full length (Arabidopsis thaliana, UniProt Q9FKA0 1-285)
Sequence: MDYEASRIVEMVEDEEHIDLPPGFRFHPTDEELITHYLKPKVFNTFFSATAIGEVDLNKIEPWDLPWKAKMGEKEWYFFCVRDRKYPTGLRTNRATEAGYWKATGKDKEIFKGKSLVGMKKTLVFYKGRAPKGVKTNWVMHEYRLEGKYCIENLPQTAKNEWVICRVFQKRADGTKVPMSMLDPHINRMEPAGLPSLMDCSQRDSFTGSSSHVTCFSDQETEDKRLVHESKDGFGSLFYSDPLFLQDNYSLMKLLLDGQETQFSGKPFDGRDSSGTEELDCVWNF
Test: universal protein binding microarray (PBM); transcription factors of Arabidopsis thaliana; high values mean tight binding
Details: protein: recombinant; tags: GST; chain copies: 2; dsDNA, one strand shown
binding signal less than 0.3 E-score is label 1; binding signal greater than or equal to 0.3 E-score is label 0.

# query sequence, class label
records = [
    ("CACGGCAA", "label 0"),
    ("CATTGACG", "label 1"),
    ("TACGCAAA", "label 0"),
    ("ATTGACCA", "label 1"),
    ("AGTTACGC", "label 1"),
    ("ATTGACTA", "label 1"),
    ("CTTACGCA", "label 0"),
    ("TACACGTA", "label 0"),
    ("GATGCGTA", "label 0"),
    ("CTTTCTTC", "label 1"),
    ("TGCGTAAA", "label 0"),
    ("GCACGTTA", "label 0"),
    ("CCAAGCAA", "label 0"),
    ("AAGTCATC", "label 1"),
    ("ATTCCTTA", "label 1"),
    ("GTGGAGTA", "label 0"),
    ("ACGTAAGT", "label 0"),
    ("ACGTAACA", "label 0"),
    ("ACGCTTCC", "label 0"),
    ("CACGAAAG", "label 0"),
    ("ATACGAAA", "label 0"),
    ("TAACGTAA", "label 0"),
    ("AGCGTAAG", "label 0"),
    ("ACGGAAAC", "label 0"),
    ("GCGTCAAC", "label 1"),
    ("CACGCTAG", "label 0"),
    ("ATTACTTC", "label 0"),
    ("ACTAAGTA", "label 1"),
    ("AGAAGCAA", "label 0"),
    ("GTCAATCA", "label 1"),
    ("ACGTAACC", "label 0"),
    ("GGGGGAAA", "label 1"),
    ("AGCGTTGA", "label 1"),
    ("ACTTTCCT", "label 1"),
    ("GGAGGTAA", "label 1"),
    ("GCACGAAA", "label 0"),
    ("TCACGCAA", "label 0"),
    ("AGGTTACC", "label 1"),
    ("AAAGCAAC", "label 0"),
    ("GCGTGTTA", "label 0"),
    ("CACGCGAC", "label 0"),
    ("CAAAGTCA", "label 1"),
]

Just for reference, paper PMC4081100 is where these values come from.
